Target: human ROR1 (Homo sapiens)
Construct: host or cells: HEK 293T cells, Tet-on system induced with doxycycline
Sequence (Q01973 30-937): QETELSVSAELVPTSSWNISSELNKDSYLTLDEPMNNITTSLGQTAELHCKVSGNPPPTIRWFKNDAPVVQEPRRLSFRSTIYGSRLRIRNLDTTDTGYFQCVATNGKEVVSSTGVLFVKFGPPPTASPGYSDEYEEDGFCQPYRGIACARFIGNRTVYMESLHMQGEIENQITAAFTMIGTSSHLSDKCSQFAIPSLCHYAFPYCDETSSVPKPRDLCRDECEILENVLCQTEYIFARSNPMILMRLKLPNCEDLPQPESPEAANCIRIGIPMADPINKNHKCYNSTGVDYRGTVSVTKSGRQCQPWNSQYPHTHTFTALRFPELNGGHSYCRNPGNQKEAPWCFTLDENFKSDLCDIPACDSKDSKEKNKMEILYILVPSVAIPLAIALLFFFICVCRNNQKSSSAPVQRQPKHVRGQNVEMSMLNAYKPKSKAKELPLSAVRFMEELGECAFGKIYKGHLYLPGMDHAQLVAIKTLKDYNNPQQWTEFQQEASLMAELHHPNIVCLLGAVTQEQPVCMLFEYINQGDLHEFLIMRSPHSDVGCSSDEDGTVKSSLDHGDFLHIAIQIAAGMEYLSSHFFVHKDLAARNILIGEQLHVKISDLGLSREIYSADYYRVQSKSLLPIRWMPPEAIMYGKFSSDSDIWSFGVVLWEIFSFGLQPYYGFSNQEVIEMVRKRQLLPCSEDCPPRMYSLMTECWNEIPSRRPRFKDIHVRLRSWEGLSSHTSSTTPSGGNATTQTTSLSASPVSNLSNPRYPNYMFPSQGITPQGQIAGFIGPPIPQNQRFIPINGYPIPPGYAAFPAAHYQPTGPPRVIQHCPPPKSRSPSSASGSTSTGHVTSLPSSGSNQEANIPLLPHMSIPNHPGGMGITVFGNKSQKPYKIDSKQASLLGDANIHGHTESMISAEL
Assay: ROR1 high content cell-based binding assay
Conditions: read-out: ROR1 Binding 293T Human HC Cell Based Assay IC50
Positions of bridges follow the written chain, without caps; N, C: chain ends. Non-standard residues stand in square brackets, D forms with d. Residues, ends and D or L forms follow the SMILES beside them. NMeF = CN[C@@H](Cc1ccccc1)C(=O)O; AEEA = NCCOCCOCC(=O)O
Catalogue of IC50 values
Quantity name: IC50 (nM)

[[record]]
compound = "CC(C)C[C@@H]1NC(=O)[C@H](Cc2ccc(O)cc2)NC(=O)[C@H](Cc2ccccc2)N(C)C(=O)CNC(=O)[C@H](Cc2ccc(O)cc2)NC(=O)[C@H](Cc2ccccc2)NC(=O)CSC[C@@H](C(N)=O)NC(=O)[C@H](Cc2c[nH]c3ccccc23)NC(=O)[C@H](Cc2ccc(O)cc2)NC1=O [Example 1115] ({CH2CO}-FYG[NMeF]YLYWC-NH2; thioether N-9)"
quantity_name = "IC50"
uom = "nM"
value_observed = 94

[[record]]
compound = "CC(C)C[C@@H]1NC(=O)[C@H](Cc2ccc(O)cc2)NC(=O)[C@H](Cc2ccccc2)NC(=O)CSC[C@@H](C(=O)NCC(N)=O)NC(=O)[C@H](CC(C)C)NC(=O)[C@H](Cc2ccccc2)N(C)C(=O)[C@H](Cc2ccc(O)cc2)NC(=O)[C@H](Cc2c[nH]c3ccccc23)NC(=O)CNC(=O)[C@H](Cc2ccccc2)NC(=O)[C@H](Cc2ccc(O)cc2)NC(=O)[C@H](C(C)C)NC1=O [Example 1043] ({CH2CO}-FYLVYFGWY[NMeF]LCG-NH2; thioether N-12)"
quantity_name = "IC50"
uom = "nM"
value_observed = 38

[[record]]
compound = "CC(C)[C@@H]1NC(=O)[C@H](Cc2c[nH]c3ccccc23)NC(=O)[C@H](Cc2ccc(O)cc2)NC(=O)[C@H](Cc2c[nH]c3ccccc23)NC(=O)CNC(=O)[C@H](Cc2c[nH]c3ccccc23)NC(=O)[C@H](CCCNC(=N)N)NC(=O)[C@H](C(C)C)NC(=O)[C@H](Cc2ccccc2)N(C)C(=O)[C@H](CCCNC(=N)N)NC(=O)[C@H](Cc2ccccc2)NC(=O)CSC[C@@H](C(=O)NCCOCCOCC(=O)O)NC1=O [Example 1091] ({CH2CO}-FR[NMeF]VRWGWYWVC[AEEA]-OH; thioether N-12)"
quantity_name = "IC50"
uom = "nM"
value_observed = 565


Every entry's value here was drawn from patent US20240116988A1.
